# ASSAY METHOD TEXT: Half life in C57BL/6 mouse at 10 mg/kg, po by LC-MS/MS analysis
# Assay type: ADME, organism-based
# RECORDED CONDITIONS: in vivo
PROPERTY: half-life (h)
Numbers only, in h.

Input line: What value of measured half-life is listed for C=CC(=O)Nc1cc(Oc2nc(Nc3ccc(N4CCN(C)CC4)cc3OC)ccc2N2CCCCC2)ccc1C ?
Output line: 3.06

---

# TGT: UniProt P10635
# Sequence (P10635 whole entry): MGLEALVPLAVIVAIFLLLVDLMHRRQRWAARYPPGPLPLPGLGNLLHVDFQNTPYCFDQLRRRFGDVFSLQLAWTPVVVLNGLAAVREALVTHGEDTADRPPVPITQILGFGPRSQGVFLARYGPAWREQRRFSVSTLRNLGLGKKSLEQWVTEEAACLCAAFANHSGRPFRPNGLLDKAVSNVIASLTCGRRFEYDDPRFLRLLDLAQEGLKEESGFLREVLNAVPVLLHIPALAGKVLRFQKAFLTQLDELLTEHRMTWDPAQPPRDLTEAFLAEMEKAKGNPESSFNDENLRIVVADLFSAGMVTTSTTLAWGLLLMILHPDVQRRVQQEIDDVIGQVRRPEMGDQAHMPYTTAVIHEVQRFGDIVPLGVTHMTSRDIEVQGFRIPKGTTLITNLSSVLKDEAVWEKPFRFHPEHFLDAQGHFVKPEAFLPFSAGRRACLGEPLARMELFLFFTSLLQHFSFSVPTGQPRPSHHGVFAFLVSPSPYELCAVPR
pIC50: −log10 of the molar value.
PROPERTY: pIC50

Input line: What value of measured pIC50 is listed for C=CC(=O)Nc1cc(Oc2nc(Nc3ccc(N4CCN(C)CC4)cc3OC)ccc2N2CCCCC2)ccc1C ?
Output line: < 5.00
